# Tested on: BV-2
# experiment.summary: Anti-neuroinflammatory activity in mouse BV2 cells assessed as inhibition of LPS-induced TNF-alpha production by measuring TNF-alpha level at 50 uM preincubated for 1 hr followed by LPS stimulation and measured after 24 hrs by ELISA (reference value: 100 +/- 0%)
# Format: functional
# particulars: time 25 hrs
TNF-alpha level (% of LPS control) values, listed per item
assay.metric: TNF-alpha level (% of LPS control) (%)

* COc1ccc(CN2CCc3cc4c(cc3C2)OCO4)cc1 | 88
* c1ccc(CN2CCc3cc4c(cc3C2)OCO4)cc1 | 90
* COc1cc(CN2CCc3cc4c(cc3C2)OCO4)cc(OC)c1 | 89

meta.source: ChEMBL document CHEMBL4715828
